Tested on: KRAS patient-derived spheroids with HUVEC/MSC, viability;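 also: spheroids exposed to agents for seven days before readout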
test.method.notes: Anticancer human tumor 941728-121-R-J1-PDC patient-derived lung adenocarcinoma cell line growth inhibition [KRAS2]
condition.parameters: second compound 0.1 µM; first compound 0.01 µM; stronger effect = lower value
Param label: returns T when viability, T/C < 30%, returns F otherwise, including exact equality.

compound: CN(C)C/C=C/C(=O)Nc1cc2c(Nc3ccc(F)c(Cl)c3)ncnc2cc1O[C@H]1CCOC1 + COc1cc2nc(C)nc(NC(C)c3cc(N)cc(C(F)(F)F)c3)c2cc1OC1CCOC1
class.label: F
--
compound: CC(C)n1nc(-c2ccc3oc(N)nc3c2)c2c(N)ncnc21 + CNCc1ccccc1-c1csc(C(C)Nc2nc(C)nc3cc(OC)c(OC)cc23)c1
class.label: F
--
compound: CCN1CCN(Cc2ccc(Nc3ncc(F)c(-c4cc(F)c5nc(C)n(C(C)C)c5c4)n3)nc2)CC1 + COc1cc2nc(C)nc(NC(C)c3cc(N)cc(C(F)(F)F)c3)c2cc1OC1CCOC1
class.label: F
--
compound: CCN1CCN(Cc2ccc(Nc3ncc(F)c(-c4cc(F)c5nc(C)n(C(C)C)c5c4)n3)nc2)CC1 + CNCc1ccccc1-c1csc(C(C)Nc2nc(C)nc3cc(OC)c(OC)cc23)c1
class.label: F
--
compound: CC(C)n1nc(-c2ccc3oc(N)nc3c2)c2c(N)ncnc21 + CC1OCC2(CCN(c3cnc(Sc4ccnc(N)c4Cl)c(N)n3)CC2)C1N
class.label: T
--
compound: Cn1ncnc1[C@H]1c2n[nH]c(=O)c3cc(F)cc(c23)N[C@@H]1c1ccc(F)cc1 + C=CC(=O)N1CCN(c2nc(OCC3CCCN3C)nc3c2CCN(c2cccc4cccc(C)c24)C3)CC1CC#N
class.label: T
--
compound: CC(=O)Nc1cccc(-n2c(=O)n(C3CC3)c(=O)c3c(Nc4ccc(I)cc4F)n(C)c(=O)c(C)c32)c1 + COc1cc2nc(C)nc(NC(C)c3cc(N)cc(C(F)(F)F)c3)c2cc1OC1CCOC1
class.label: F
--
compound: CC1COCCN1c1cc(-c2ccnn2C)c2ccnc(-c3ccn[nH]3)c2n1 (stereo unspecified) + C=CC(=O)N1CCN(c2nc(OCC3CCCN3C)nc3c2CCN(c2cccc4cccc(C)c24)C3)CC1CC#N
class.label: T
--
compound: Cn1ncnc1[C@H]1c2n[nH]c(=O)c3cc(F)cc(c23)N[C@@H]1c1ccc(F)cc1 + CC1OCC2(CCN(c3cnc(Sc4ccnc(N)c4Cl)c(N)n3)CC2)C1N
class.label: F
--
compound: CC(=O)Nc1cccc(-n2c(=O)n(C3CC3)c(=O)c3c(Nc4ccc(I)cc4F)n(C)c(=O)c(C)c32)c1 + CC1OCC2(CCN(c3cnc(Sc4ccnc(N)c4Cl)c(N)n3)CC2)C1N
class.label: F
--
compound: CC(=O)Nc1cccc(-n2c(=O)n(C3CC3)c(=O)c3c(Nc4ccc(I)cc4F)n(C)c(=O)c(C)c32)c1 + C=CC(=O)N1CCN(c2nc(OCC3CCCN3C)nc3c2CCN(c2cccc4cccc(C)c24)C3)CC1CC#N
class.label: T
